Molecular target: pooled human IgG (human IgG1, 2, 3 and 4) (human); note: test concentration or dose not given here
Test: cell-based or functional assay
readout-kind: Enzyme Activity Endpoint Assay: Fc (ng/µL)
The response must be a number in ng/µL with no trailing unit.

Noted for PRT-426 (enzyme) MTITSVWTKGVTPPTPEDFRYNNEDVLHAPYVANQGWYDITKTFDGKDNLLCGAATAGNMLHWWFDQNKEEIERYLKKHPEKQKIIFNNQELFDVKAAIDTKDSQTNSKLFNYFRDKAFPNLSARQLGVFPDLVLDMFINGYYLNLGKTQSTDVNRPYQDKDKRGGIFDAVFTRGDQTTLLTARHDLKNKGLNEISDLIKQELTEGKALALSHTYANVRINHVINLWGADFDAEGNLIAIYVTDSDANASIGMKKYFVGVNANGKVAISAKKIEGDNIGAQVLGLFTLSTGQDIWQKLS : its Enzyme Activity Endpoint Assay: Fc reads 283

// data source = patent US20250027068A1
